Target: T1, CXCL4 (human)
T1 chain: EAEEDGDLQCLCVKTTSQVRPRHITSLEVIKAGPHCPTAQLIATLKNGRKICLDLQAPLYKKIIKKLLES
Test: BLI
property: log10(Kd) (log10 of the value in nM)
The base-10 logarithm of Kd, taken with Kd in nM, is what appears here.

Below, 4 binders whose answers are already recorded.
binder	log10(Kd)
P1126 (natural protein, also: glycosylated) DGGKPQILQRTDKSTDSEWDPQTCPETCIPSKNITCSDGCVCVKLGEEEEGTCFNMTGVDWLGSPSDD	2.59
P1142 (natural protein, glycosylated (periodic acid–Schiff staining)) DGGKPQILQRTDHSTDSDWDPQMCPETCNPSKNISCSSECLCVTLGGGDETGTCFNMSGVDWLGHAQASDGHNDGGGASAWSHPQFEKLEHHHHHHHH	2.58
P1080_IXORI (natural protein) SAGSKGSSAPQSSGDSVVAEFCDTNCTMKKDGKWTECNGDCFCVHVGNETVGRCMRLDGDYDYTSSKTTRRNKKTRNGLCRLDRNRTTVDYPERNTREP	3.36
P942 (natural protein, also: glycosylated) DGGNQLSGPQSSANSNEAVFCDTNCTQGTDEAWSGCRGDCFCVYVGNSTEGRCMMLSGDFDYSTPGAED	2.17

Next, consider the following binder.
Sample P675 (natural protein, also: glycosylated) GSNQLSGPQSSANSNDAVFCDTNCTQGTDGAWSGCRGDCFCVHVGNSTEGRCIELIGDFDYSTPGAED — what was its log10(Kd)?
2.63
